# TARGET UNDER TEST: recombinant human secretory phospholipase A2 (Homo sapiens, UniProt P14555)
# Sequence (P14555 21-144): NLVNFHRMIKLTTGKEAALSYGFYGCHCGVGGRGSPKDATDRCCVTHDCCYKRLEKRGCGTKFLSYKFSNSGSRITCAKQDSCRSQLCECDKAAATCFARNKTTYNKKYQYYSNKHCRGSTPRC
# MEASUREMENT DESCRIPTION: Inhibition test of human secretory phospholipase A2 (chromogenic assay, 96 well microtiterplate)
# Format: biochemical
# MEASUREMENT CONDITIONS: sPLA2 50 ng/well, 40° C., 30 minutes, OD 405 nm, substrate 1,2-bis(heptanoylthio)-1,2-dideoxy-sn-glycero-3-phospholylcholine
PARAMETER MEASURED: IC50 (nM)
Answers are plain numbers, in nM.

The examples below pair each entry with its known result.
[[record]]
compound_smiles = "CCc1c(C(=O)C(N)=O)c2c(OCC(=O)OC)cc(C)nn2c1Cc1ccccc1"
target_under_test = "recombinant human secretory phospholipase A2 (Homo sapiens, UniProt P14555)"
observed_value = 150

[[record]]
compound_smiles = "CCc1cc(OCC(=O)OC)c2c(C(=O)C(N)=O)c(C)c(Cc3ccccc3)n2n1"
target_under_test = "recombinant human secretory phospholipase A2 (Homo sapiens, UniProt P14555)"
observed_value = 99

[[record]]
compound_smiles = "CCc1c(C(=O)C(N)=O)c2c(OCC(=O)O)cc(-c3ccccc3)nn2c1Cc1ccccc1"
target_under_test = "recombinant human secretory phospholipase A2 (Homo sapiens, UniProt P14555)"
observed_value = 6


Quick batch: IC50 for everything below.
1. CCCc1cc(OCC(=O)O)c2c(C(=O)C(N)=O)c(CC)c(Cc3ccccc3)n2n1
2. CCc1c(C(=O)C(N)=O)c2c(OCC(=O)O)cc(-c3ccc(OC)cc3)nn2c1Cc1ccccc1

## Result
1: 10; 2: 7

For each of the molecules below, state IC50.
1. CCc1c(C(=O)C(N)=O)c2c(OCC(=O)OC)cc(C3CCCC3)nn2c1Cc1ccccc1
2. CCc1c(C(=O)C(N)=O)c2c(OCC(=O)OC)cc(COc3ccc(F)cc3)nn2c1Cc1ccccc1
3. CCc1c(C(=O)C(N)=O)c2c(OCC(=O)O)cc(COc3ccc(OC)cc3)nn2c1Cc1ccccc1

## Result
227
223
6

###

Give melting point for every item shown.

[[record]]
compound_smiles = "COC(=O)COc1cc(C)nn2c(Cc3ccccc3)c(C)c(C(=O)C(N)=O)c12"
parameter_measured = "melting point"
observed_value = "163 to 165 °C"

[[record]]
compound_smiles = "CCc1c(C(=O)C(N)=O)c2c(OCC(=O)OC)cc(-c3ccc(F)cc3)nn2c1Cc1ccccc1"
parameter_measured = "melting point"
observed_value = "249 to 253 °C (dec.)"

[[record]]
compound_smiles = "CCc1c(C(=O)C(N)=O)c2c(OCC(=O)O)cc(CSc3ccccc3)nn2c1Cc1ccccc1"
parameter_measured = "melting point"
observed_value = "226 to 228 °C (dec.)"

[[record]]
compound_smiles = "CCc1c(C(=O)C(N)=O)c2c(OCC(=O)OC)cc(COc3ccc(C)cc3)nn2c1Cc1ccccc1"
parameter_measured = "melting point"
observed_value = "191 to 192 °C"


Would you mind giving melting point for every molecule in the list below?
1. CCCc1cc(OCC(=O)O)c2c(C(=O)C(N)=O)c(CC)c(Cc3ccccc3)n2n1
2. CCc1c(C(=O)C(N)=O)c2c(OCC(=O)O)cc(C)nn2c1Cc1ccccc1-c1ccc(F)cc1
3. CCc1c(C(=O)C(N)=O)c2c(OCC(=O)OC)cc(-c3ccc(OC)cc3)nn2c1Cc1ccccc1

## Result
1. 231 to 233 °C (dec.)
2. 214 to 216 °C (dec.)
3. 215 to 217 °C (dec.)

List reported melting point for each of these molecules:
1. CCc1c(C(=O)C(N)=O)c2c(OCC(=O)O)cc(CN3C(=O)CCC3=O)nn2c1Cc1ccccc1
2. CCc1c(C(=O)C(N)=O)c2c(OCC(=O)OC)cc(-c3ccc4c(c3)OCO4)nn2c1Cc1ccccc1
3. CCc1c(C(=O)C(N)=O)c2c(OCC(=O)OC)ccnn2c1Cc1ccccc1
4. CCc1c(C(=O)C(N)=O)c2c(OCC(=O)O)cc(-c3ccccc3)nn2c1Cc1ccccc1F
5. CCOC(=O)COc1cc(C)nn2c(Cc3ccccc3)c(C)c(C(=O)C(N)=O)c12
6. CCc1c(C(=O)C(N)=O)c2c(OCC(=O)O)cc(-c3ccc4c(c3)OCO4)nn2c1Cc1ccccc1

## Result
1: 210 to 212 °C (dec.); 2: 245 to 247 °C (dec.); 3: 210 to 212 °C; 4: 252 to 254 °C; 5: 197 to 199 °C; 6: 240 to 243 °C (dec.)

Lab note: each molecule below needs its melting point filled in.
1. CCc1c(C(=O)C(N)=O)c2c(OCC(=O)OC)cc(C(F)(F)F)nn2c1Cc1ccc(F)cc1
2. Cc1cc(OCC(=O)O)c2c(C(=O)C(N)=O)c(C)c(Cc3ccccc3-c3ccc(F)cc3)n2n1

## Result
["200 to 202 °C", "242 to 244 °C (dec.)"]
